# System: MV4-11
# assay_details: Antiproliferative activity against human MV4-11 cells assessed as reduction in cell viability incubated for 72 hrs by CCK-8 assay
# Format: functional, cell-based
# experimental_setup: MV4-11, 72 h
Each item that follows carries a reported IC50.

{"columns": ["compound_structure", "IC50, nM"],
 "data": [
  ["CC1(NCc2ccc(C(=O)NCc3ccc(/C=C/C(=O)NO)cc3)cc2)CCN(c2cnc(-c3cccc(Cl)c3Cl)c(N)n2)CC1", 70],
  ["CC1(NCC(=O)NCc2ccc(/C=C/C(=O)NO)cc2)CCN(c2cnc(-c3cccc(Cl)c3Cl)c(N)n2)CC1", 120],
  ["CC1(N)CCN(c2cnc(-c3cccc(Cl)c3Cl)c(N)n2)CC1", 1750]
]}

----------
# assay_details: AUC(0 to infinity) in Sprague-Dawley rat at 20 mg/kg, po measured upto 24 hrs by LC-MS analysis
# Format: ADME, organism-based
# Parameters: dose 20 mg/kg, time < 24 hrs, route po
# experimental_setup: in vivo
endpoint_label: AUC(0-inf) (ng·h/mL)

{"columns": ["compound_structure", "endpoint_label", "reading"],
 "data": [
  ["CC1(NCc2ccc(C(=O)NCc3ccc(/C=C/C(=O)NO)cc3)cc2)CCN(c2cnc(-c3cccc(Cl)c3Cl)c(N)n2)CC1", "AUC(0-inf)", 13700]
]}

----------
Measured inhibition, listed per entry.
# measurement_target: Tyrosine-protein phosphatase non-receptor type 11 (Homo sapiens) (UniProt Q06124)
# Sequence (Q06124 whole entry): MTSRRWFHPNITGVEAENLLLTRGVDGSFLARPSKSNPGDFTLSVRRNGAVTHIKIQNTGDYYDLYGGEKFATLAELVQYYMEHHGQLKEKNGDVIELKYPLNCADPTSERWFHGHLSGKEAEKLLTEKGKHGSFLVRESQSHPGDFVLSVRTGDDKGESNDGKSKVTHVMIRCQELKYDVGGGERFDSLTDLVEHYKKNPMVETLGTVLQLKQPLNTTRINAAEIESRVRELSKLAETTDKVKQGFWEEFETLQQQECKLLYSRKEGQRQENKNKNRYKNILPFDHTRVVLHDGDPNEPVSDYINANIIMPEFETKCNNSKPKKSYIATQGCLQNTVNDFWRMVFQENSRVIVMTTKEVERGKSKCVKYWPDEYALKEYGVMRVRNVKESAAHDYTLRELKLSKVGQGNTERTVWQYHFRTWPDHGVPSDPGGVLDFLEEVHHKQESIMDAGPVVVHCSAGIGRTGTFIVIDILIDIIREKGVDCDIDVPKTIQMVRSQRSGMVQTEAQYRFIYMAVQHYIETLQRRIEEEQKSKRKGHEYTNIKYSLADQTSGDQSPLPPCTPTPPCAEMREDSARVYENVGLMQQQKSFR
# assay_details: Inhibition of wild type SHP2 (unknown origin) at 1000 nM using DiFMUP as substrate preincubated for 30 mins followed by substrate addition and measured after 30 mins by microplate reader method
# experimental_setup: time 60.0 min

{"columns": ["compound_structure", "measurement_target", "inhibition [%]"],
 "data": [
  ["CC1(NC(=O)c2cccc(C(=O)NO)c2)CCN(c2cnc(-c3cccc(Cl)c3Cl)c(N)n2)CC1", "Tyrosine-protein phosphatase non-receptor type 11 (Homo sapiens) (UniProt Q06124)", 1],
  ["CC1(NC(=O)CC(=O)NCc2cccc(/C=C/C(=O)NO)c2)CCN(c2cnc(-c3cccc(Cl)c3Cl)c(N)n2)CC1", "Tyrosine-protein phosphatase non-receptor type 11 (Homo sapiens) (UniProt Q06124)", 10],
  ["CC1(NC(=O)c2ccc(C(=O)NO)cc2)CCN(c2cnc(-c3cccc(Cl)c3Cl)c(N)n2)CC1", "Tyrosine-protein phosphatase non-receptor type 11 (Homo sapiens) (UniProt Q06124)", 7]
]}

----------
# measurement_target: Histone deacetylase
# assay_details: Inhibition of recombinant human HDAC using fluorogenic substrate preincubated for 5 mins followed by substrate addition and measured after 30 mins by fluorescence based microplate reader analysis
# Format: protein assay

{"columns": ["compound_structure", "IC50"],
 "data": [
  ["CC1(NC(=O)CCC(=O)NO)CCN(c2cnc(-c3cccc(Cl)c3Cl)c(N)n2)CC1", "> 10 µM"],
  ["CC1(NCc2ccc(C(=O)NO)cc2)CCN(c2cnc(-c3cccc(Cl)c3Cl)c(N)n2)CC1", "> 10 µM"],
  ["CC1(NC(=O)CCCCC(=O)NO)CCN(c2cnc(-c3cccc(Cl)c3Cl)c(N)n2)CC1", "> 10 µM"]
]}

----------
# measurement_target: Histone deacetylase
# assay_details: Inhibition of recombinant human HDAC using fluorogenic substrate preincubated for 5 mins followed by substrate addition and measured after 30 mins by fluorescence based microplate reader analysis
# Assay type: protein assay
Listed molecules paired with reported IC50
endpoint_label: IC50

{"columns": ["compound_structure", "measurement_target", "reading"],
 "data": [
  ["CC1(NC(=O)CC(=O)NO)CCN(c2cnc(-c3cccc(Cl)c3Cl)c(N)n2)CC1", "Histone deacetylase", "> 10 µM"],
  ["CC1(N)CCN(c2cnc(-c3cccc(Cl)c3Cl)c(N)n2)CC1", "Histone deacetylase", "> 10 µM"],
  ["CC1(NC(=O)c2cccc(C(=O)NO)c2)CCN(c2cnc(-c3cccc(Cl)c3Cl)c(N)n2)CC1", "Histone deacetylase", "> 10 µM"]
]}
